- assayedTarget: T1, mouse tissue factor pathway inhibitor (TFPI) (mouse, UniProt O54819 29-289, limits assumed)
- T1 construct: Bought protein; also called mouse TFPI; mTFPI
- T1 sequence (looked up): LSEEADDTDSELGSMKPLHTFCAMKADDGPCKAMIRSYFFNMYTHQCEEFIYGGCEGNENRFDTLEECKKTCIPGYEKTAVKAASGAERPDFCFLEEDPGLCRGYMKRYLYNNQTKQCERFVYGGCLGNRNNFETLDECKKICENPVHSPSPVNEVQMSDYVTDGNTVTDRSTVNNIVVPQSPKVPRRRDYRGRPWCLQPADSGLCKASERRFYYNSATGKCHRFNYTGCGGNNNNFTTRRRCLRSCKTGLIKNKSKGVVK
- assayDetails: Biacore, TFPI on CM5 chip, Fab in mobile phase
reportedProperty: pKd
The read-out pKd is expressed as -log10 of concentration in moles per litre.

binder | numericReadout
TP-3B4 Fab (Fab, V domains shown, Human Fab from HuCal Gold, expressed in E. coli TG1) VH: QVQLQQSGPGLVKPSQTLSLTCAISGDSVSSNGAAWGWIRQSPGRGLEWLGHIYYRSKWYNSYAVSVKSRITINPDTSKNQFSLQLNSVTPEDTAVYYCARWGGIHDGDIYFDYWGQGTLVTVSS VL: DIQMTQSPSSLSASVGDRVTITCRASQNISNYLNWYQQKPGKAPKLLIYGTSSLQSGVPSRFSGSGSGTDFTLTISSLQPEDFAVYYCQQYGNNPTTFGQGTKVEIKR | 7.69
TP-2E5 Fab (Fab, V domains shown, Human Fab from HuCal Gold, expressed in E. coli TG1) VH: QVQLQQSGPGLVKPSQTLSLTCAISGDSVSSNSAAWSWIRQSPGRGLEWLGMIFYRSKWNNDYAVSVKSRITINPDTSKNQFSLQLNSVTPEDTAVYYCARVNANGYYAYVDLWGQGTLVTVSS VL: DIQMTQSPSSLSASVGDRVTITCRASQPIYNSLSWYQQKPGKAPKLLIYGVSNLQSGVPSRFSGSGSGTDFTLTISSLQPEDFAVYYCLQVDNLPITFGQGTKVEIKR | 7.60
TP-2A8 Fab (Fab, V domains shown, Human Fab from HuCal Gold, expressed in E. coli TG1; also called Fab-2A8) VH: QVQLVESGGGLVQPGGSLRLSCAASGFTFRSYGMSWVRQAPGKGLEWVSSIRGSSSSTYYADSVKGRFTISRDNSKNTLYLQMNSLRAEDTAVYYCARKYRYWFDYWGQGTLVTVSS VL: DIELTQPPSVSVAPGQTARISCSGDNLRNYYAHWYQQKPGQAPVVVIYYDNNRPSGIPERFSGSNSGNTATLTISGTQAEDEADYYCQSWDDGVPVFGGGTKLTVLG | 8.51
TP-3G1 Fab (Fab, V domains shown, Human Fab from HuCal Gold, expressed in E. coli TG1) VH: QVQLQQSGPGLVKPSQTLSLTCAISGDSVSSNSGGWGWIRQSPGRGLEWLGLIYYRSKWYNAYAVSVKSRITINPDTSKNQFSLQLNSVTPEDTAVYYCARYLGSNFYVYSDVWGQGTLVTVSS VL: DIQMTQSPSSLSASVGDRVTITCRASQGISSYLHWYQQKPGKAPKLLIYGASTLQSGVPSRFSGSGSGTDFTLTISSLQPEDFATYYCQQQNGYPFTFGQGTKVEIKR | 7.31

Measured pKd of TP-3A4 Fab (Fab, V domains shown, Human Fab from HuCal Gold, expressed in E. coli TG1) VH: QVQLVESGGGLVQPGGSLRLSCAASGFTFSSYWMHWVRQAPGKGLEWVSSISYDSSNTYYADSVKGRFTISRDNSKNTLYLQMNSLRAEDTAVYYCARYGGMDYWGQGTLVTVSS VL: DIELTQPPSVSVAPGQTARISCSGDNLRDKYASWYQQKPGQAPVLVIYSKSERPSGIPERFSGSNSGNTATLTISGTQAEDEADYYCSSYTLNPNLNYVFGGGTKLTVLG : 7.63
